target: T1, SARS-CoV-2 Gamma Variant RBD (SARS-CoV-2 Gamma variant); assay: ELISA, RBD coated
T1 construct: domain: RBD; coated on ELISA plates
recorded.metric: EC50 (nM)

binder	recorded.metric	reported.value
PP912 MBP-5HVZ-S2b-G8-H6 (VHH, Form: Dimer) VHH: QVQLVESGGGLVQPGGSLRLSCAASGSIQSYEAMHWFRQAPGKAREWVAVITWGDSTQYGDSVKGRFTISRDNAKNTVYLQMNSLKPEDTAVYYCAADVRQGYSSWGQGTQVTVSS	EC50	177
PP1114 MBP-5HVZ-PAPA-RN-30-H6 (VHH, Form: Dimer) VHH: QVQLVESGGGLVQPGGSLRLSCAASGIPASYLNMHWFRQAPGKQREWVAGAGGTNSNYYQDSVKGRFTISRDNAKNTVYLQMNSLKPEDTAVYYCAALDGAESYDYVYPVWGQGTQVTVSS	EC50	6.12
PP1145 MBP-5HVZ-PAPA-R2d-A6-H6 (VHH, Form: Dimer) VHH: QVQLVESGGGLVQPGGSLRLSCAASGSGASIGAMHWFRQAPGKGREWVASITSAGNTYYGDSVKGRFTISRDNAKNTVYLQMNSLKPEDTAVYYCNALAGANYESQWEEYNYWGQGTQVTVSS	EC50	5.49
PP1108 MBP-5HVZ-PAPA-RN-23-H6 (VHH, Form: Dimer) VHH: QVQLVESGGGLVQPGGSLRLSCAASGGEKSISAAHWYRQAPGKEREFVAAITAASTTSYADSVKGRFTISRDNAKNTVYLQMNSLKPEDTAVYYCTAVLYDSYDYWGQGTQVTVSS	EC50	57.1
